# target entity: 5-hydroxytryptamine receptor 2C (Homo sapiens, UniProt P28335)
# Sequence (P28335 whole entry): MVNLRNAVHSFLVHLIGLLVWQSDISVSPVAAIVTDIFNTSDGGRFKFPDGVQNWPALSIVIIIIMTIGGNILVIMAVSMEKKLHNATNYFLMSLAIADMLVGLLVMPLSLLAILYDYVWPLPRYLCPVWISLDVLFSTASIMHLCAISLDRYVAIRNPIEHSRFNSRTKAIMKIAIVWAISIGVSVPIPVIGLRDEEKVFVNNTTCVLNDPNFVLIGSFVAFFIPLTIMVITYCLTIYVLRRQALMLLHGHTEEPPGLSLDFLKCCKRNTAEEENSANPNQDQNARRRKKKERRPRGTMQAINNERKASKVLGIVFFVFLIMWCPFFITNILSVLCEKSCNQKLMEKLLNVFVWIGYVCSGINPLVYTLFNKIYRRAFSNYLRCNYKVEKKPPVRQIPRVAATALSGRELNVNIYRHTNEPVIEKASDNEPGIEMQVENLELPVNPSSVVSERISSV
pKi: −log10 of the molar value.
Literature survey of pKi (system: 5-hydroxytryptamine receptor 2C (Homo sapiens, UniProt P28335)).

[
  {
    "test smiles": "CN(C)CCN(Cc1ccccc1)S(=O)(=O)c1ccc(I)cc1",
    "target entity": "5-hydroxytryptamine receptor 2C (Homo sapiens, UniProt P28335)",
    "pKi": 8.10
  },
  {
    "test smiles": "COc1cc(OC)c(C(=O)CCCCN2CCC3(CC2)NC(=O)NC3=O)cc1NS(=O)(=O)c1ccc(C(F)(F)F)cc1",
    "target entity": "5-hydroxytryptamine receptor 2C (Homo sapiens, UniProt P28335)",
    "pKi": 9.22
  },
  {
    "test smiles": "COc1cc(OC)c(C(=O)CCCCN2CCC3(CC2)NC(=O)NC3=O)cc1NS(=O)(=O)c1ccc(OC(F)(F)F)cc1",
    "target entity": "5-hydroxytryptamine receptor 2C (Homo sapiens, UniProt P28335)",
    "pKi": 8.80
  },
  {
    "test smiles": "O=CNc1cc(F)ccc1C(=O)CCCN1CC[C@H]2[C@@H](C1)c1cccc3c1N2CCCS3",
    "target entity": "5-hydroxytryptamine receptor 2C (Homo sapiens, UniProt P28335)",
    "pKi": 6.59
  },
  {
    "test smiles": "COc1ccc(N2Cc3cc(Cl)cc(Cl)c3C2=O)cc1OCCN1CCC(C)CC1",
    "target entity": "5-hydroxytryptamine receptor 2C (Homo sapiens, UniProt P28335)",
    "pKi": 8.80
  },
  {
    "test smiles": "Cc1c(Br)c(C(=O)N2CCN(CC(=O)c3ccc(F)cc3)CC2)nn1C",
    "target entity": "5-hydroxytryptamine receptor 2C (Homo sapiens, UniProt P28335)",
    "pKi": 5.53
  },
  {
    "test smiles": "C[C@@H](Cn1ccc2ccc3ncccc3c21)NCc1ccccc1",
    "target entity": "5-hydroxytryptamine receptor 2C (Homo sapiens, UniProt P28335)",
    "pKi": 7.11
  },
  {
    "test smiles": "Cc1nc2sccn2c(=O)c1CCN1CCC(=C(c2ccc(F)cc2)c2ccc(F)cc2)CC1",
    "target entity": "5-hydroxytryptamine receptor 2C (Homo sapiens, UniProt P28335)",
    "pKi": 8.72
  },
  {
    "test smiles": "COc1ccc(CCN(CCCc2ccccc2Br)CCc2ccc3c(c2)OCO3)cc1OC",
    "target entity": "5-hydroxytryptamine receptor 2C (Homo sapiens, UniProt P28335)",
    "pKi": 6.91
  }
]
